test system: HCV genotype 4a (ED43) chimeric HCVcc; assay: Pan-genotypic activity test using chimeric HCVcc, genotype 4a; assay type: cell-based; conditions: Hepatitis C virus, read-out: EC50 gt4a
Test readout: EC50

Below, 3 molecules whose answers are already recorded.
{"Molecule": "CCOC(=O)c1c(NC(=O)NCc2c(-n3cccc3)sc3c2CCNC3)sc2c1CCCC2 [No. 19]", "Value measured": "0.1 to 1 µM"}
{"Molecule": "O=C(NCCCN1CCC(N2CCCCC2)CC1)c1ccc(-c2ccc(C(F)(F)F)cc2)cc1 [No. 1019]", "Value measured": "> 10 µM"}
{"Molecule": "CCN1CCc2c(sc(-n3cccc3)c2CNC(=O)Nc2sc3c(c2C(=O)OC(C)(C)C)CCCC3)C1 [No. 14]", "Value measured": "0.1 to 1 µM"}

Input line: Consider the molecule shown here: CC(C)OC(=O)c1c(NC(=O)NCc2c(C(F)(F)F)sc3c2CCNC3)sc2c1CCCC2 [No. 167] What is its recorded EC50?
Output line: < 0.1 µM

Input line: Look up EC50 for this molecule: CC(C)(C)OC(=O)c1c(NC(=O)NCc2c(C(F)(F)F)sc3c2CCNC3)sc2c1CCCC2 [No. 121]
Output line: < 0.1 µM

Input line: Quick check: EC50 of O=C(NCCCN1CCC(N2CCCCC2)CC1)c1ccc(Oc2ccccc2)cc1 [No. 1013] ?
Output line: > 10 µM

Input line: What measured EC50 goes with CCOC(=O)c1c(NC(=O)NCc2c(-n3cccc3)sc3c2CCN(S(C)(=O)=O)C3)sc2c1CCCC2 [No. 21] ?
Output line: < 0.1 µM

Input line: Returns the measured EC50 for the input molecule. Input: CCOC(=O)c1c(NC(=O)NCc2c(-n3cccc3)sc3c2CCN(CC(C)C)C3)sc2c1CCCC2 [No. 27]
Output line: 0.1 to 1 µM

Input line: EC50 for CCOC(=O)c1c(NC(=O)NCc2c(C(F)(F)F)sc3c2CCN(CCN(C)C)C3)sc2c1CCCC2 [No. 316] ?
Output line: < 0.1 µM
